- method: Intact half-life during simulated gastric fluid (SGF) digestion
- measurement-setup: purified proteins, chip electrophoresis, SGF
Measured Half-life values are reported for all entries that follow.
Provide a numeric answer, followed by its unit.

Below, each entry is followed by its recorded Half-life result.
{"molecule": "SEQID-00622: protein of the 168 nutritive polypeptide library (protein, listed as Oryza sativa, subsp. japonica, protein of the 168 nutritive polypeptide library) MASEGAVSPAFAYTVVYVKDVAKSAAFYSAAFGYTVRRLDQSHKWAELESGTTTIAFTPLHQRETDALTGAVQLPDSAGERGPVEICFDYADVDAAYRRAVDSGAVPVSPPEQKSWGQKVGYVRDIDGIIVRMGSHVRA", "Half-life": "396 s"}
{"molecule": "SEQID-00606: protein of the 168 nutritive polypeptide library (protein, Glycine max, protein of the 168 nutritive polypeptide library) MASEGDHHHHHHHHQDHDHHHHDHDHHHHHDGEGETNSWVGKDGKVYHSHDGLAPHSHEPIYSPGYFTRRAPPLLNRNFNERAFTVGIGGPVGTGKTALMLALCELLRENYSLAAVTNDIFTKEDGEFLVKHKALPEERIRAVETGGCPHAAIREDISINLGPLEELSNLFKADILLCESGGDNLAANFSRELADYIIYIIDVSGGDKIPRKGGPGITQADLLVINKTDLAPAIGADLAVMQRDALRMRDGGPFVFAQVKHKIGVEEIGNLVLQAWEAATGNKRH", "Half-life": "18 s"}
{"molecule": "SEQID-00511: protein of the 168 nutritive polypeptide library (protein, Arthrospira platensis C1, protein of the 168 nutritive polypeptide library) MVLFGFGKKKSLPKPEEALPGRDRVMSVPDRHYINGNPLKPPFPEGMEQAVFGLGCFWGAERKFWQQQGVFSTAVGYAGGYTKNPTYEEVCSGMTGHTEVVLVVFDPKVISYTDLLKLFWESHNPTQGMRQGNDTGTQYRSAIYTYSDEQQRLALASRDRYQQALSAASYGEITTEIAPAQEFYYAEAYHQQYLGKNPNGYCGLGGTGVGCPAMTETSV", "Half-life": "18 s"}
{"molecule": "SEQID-00647: protein of the 168 nutritive polypeptide library (protein, Arthrospira platensis C1, protein of the 168 nutritive polypeptide library) MALSKIEEARQLNDDDLSEQILEIKKQLANLRLLKATGRLEKPHEIRHTRHRLSQLLTVERERQLPNQSPA", "Half-life": "12 s"}

Task: Which Half-life value belongs to SEQID-00485: nutritive polypeptide naturally produced in Chickpea, recombinantly expressed in E. coli (protein, listed as Cicer arietinum) MTKTGYINAAFRSSRNNEAYLFINDKYVLLDYAPGTSNDKVLYGPSFVRDGYKSLAKTIFGTYGIDCSFDTEYNEAFIFYENFCARIDYAPHSDKDKIISGPKKIADMFPFFKGTVFENGIDAAFRSTKGKEVYLFKGDKYARIDYLTNRLVQNIKSISDGFPCLRGTIFEAGMDSAFASHKTNEAYLFKGEYYARINFTPGSTNDIMGGVKKTLDYWPSLRGIIPLE ?
Output: 30 s
